assay: blockers of mitochondrial fusion, WT vs mutant – cell-based, chemical genetic, wild-type and mutant, confirmation (AID 1361); conditions: Cell-based mitochondrial fusion phenotype, imaging, WT cells
Calls of active or inactive are those of the source. The rule behind the calls is not given here.
Outcomes you can answer with include only these: T (active), F (inactive)

{"compound": "CC1CCCCN1C(=O)Cn1cc(/C=C2/C(=O)Nc3ccccc32)c2ccccc21 (configuration not stated)", "cat": "T"}
{"compound": "CCCCSc1nnc(-c2ccc(C)cc2)c2ccccc12", "cat": "T"}
{"compound": "Cc1cc(C(=O)Nn2c(C3CCCCC3)nc3ccccc3c2=O)ccc1[N+](=O)[O-]", "cat": "T"}
{"compound": "CC(=O)Cc1nsc(NC(=O)c2ccc(-c3cc(Cl)ccc3Cl)o2)n1", "cat": "F"}
{"compound": "CCNc1nc(SCCOc2ccc(Cl)cc2Cl)nc(N(C)C)n1", "cat": "T"}

Hi team, can someone confirm the assay call for COc1ccc(C2CC(c3ccc(Br)cc3)=NN2C(=O)c2cccnc2)cc1 (configuration not stated) ?
T

Hi team, can someone confirm the assay call for Cc1cccc(Cn2nc(-n3cccc3)c3c(C)cc(C)nc32)c1 ?
F

Hi team, can someone confirm the assay call for COc1cc(C(=O)OC2CC3CCC2(C)C3(C)C)ccc1OC(C)=O (configuration not stated) ?
T

Hi team, can someone confirm the assay call for CCOC(=O)CC(=O)CSc1nc(C)nc2c1oc1ccccc12 ?
F

Hi team, can someone confirm the assay call for CC1CC2(CCCC2)N(C(=O)c2ccccc2)Cc2ccccc21 (configuration not stated) ?
F
